Hi there, I'd appreciate the recorded TCR Mut RLU/WT RLU for every entry that follows.
# studySystem: KRAS G13D antigen (G13D-RT6, SEQ ID NO: 20) loaded on Lovo-DPA0301:DPB0501 cells (human)
# test: cell-based or functional assay
Answers are plain numbers, in ratio.

binder	TCR Mut RLU/WT RLU [ratio]
B8.2.4 TCR mutant β96T-N (TCR, V domains shown) V domain 1: AQKITQTQPGMFVQEKEAVTLDCTYDTSDPSYGLFWYKQPSSGEMIFLIYQGSYDQQNATEGRYSLNFQKARKSANLVISASQLGDSAMYFCAMRERTGTASKLTFGTGTRLQVTL V domain 2: DVKVTQSSRYLVKRTGEKVFLECVQDMDHENMFWYRQDPGLGLRLIYFSYDVKMKEKGDIPEGYSVSREKKERFSLILESASTNQTSMYLCASSQNVPPQHFGDGTRLSILE	0.82

Would you kindly look at the next entry?
Suppose we examine the binder B8.2.4 TCR mutant β98P-Q (TCR, V domains shown) V domain 1: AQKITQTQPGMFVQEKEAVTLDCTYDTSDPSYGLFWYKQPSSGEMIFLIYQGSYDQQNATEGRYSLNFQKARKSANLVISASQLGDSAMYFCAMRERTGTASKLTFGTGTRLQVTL V domain 2: DVKVTQSSRYLVKRTGEKVFLECVQDMDHENMFWYRQDPGLGLRLIYFSYDVKMKEKGDIPEGYSVSREKKERFSLILESASTNQTSMYLCASSQTVQPQHFGDGTRLSILE ; what TCR Mut RLU/WT RLU value has been reported?
0.45
